tested on: corn rootworm; test: Mite/insect screen, CRW; type: in vivo; settings: percent mortality; CRW rate 12.00 ppm; read-out: CRW RESULTS %
VALUE_KIND: mortality at 12 ppm

COMPOUND | ASSAY_TARGET | REPORTED
Cc1ccc(CCOc2ccnc3ccccc23)cc1 [Example 210, 4-[2-(4-methylphenyl)ethoxy]quinoline] | corn rootworm | 0%
Fc1cccc2c(OCCc3cccc(Cl)c3)ccnc12 [Example 201] | corn rootworm | 0%
C1=C(CCNc2ccc3nccc(NCCC4=CCCCC4)c3c2)CCCC1 [Example 192] | corn rootworm | 0%
Fc1ccc(CCOc2ccnc3cc(Cl)ccc23)cc1 [Example 236] | corn rootworm | 0%
Fc1ccc(CCOc2ccnc3c(F)cccc23)c(F)c1 [Example 275] | corn rootworm | 0%
Fc1cccc2c(NCCc3ccc(OCc4ccccc4)cc3)ccnc12 [Example 291] | corn rootworm | 0%
Clc1ccc2c(NCCC3=CCCCC3)ccnc2c1 [Example 165] | corn rootworm | 0%
Clc1cccc2c(OCCc3ccccc3)ccnc12 [Example 207, 8-chloro-4-(2-phenylethoxy)quinoline] | corn rootworm | 0%
Fc1cccc2c(OCCc3ccc(-c4ccccc4)cc3)ccnc12 [Example 200] | corn rootworm | 0%
CC(=O)N(CCc1ccc(Cl)cc1)c1ccc2c(N(CCc3ccc(Cl)cc3)C(C)=O)ccnc2c1 [Example 191] | corn rootworm | 0%
Fc1cccc2c(NCCCCc3ccccc3)ccnc12 [Example 268] | corn rootworm | 0%
CC(C)(C)c1ccc(CCOc2ccnc3c(F)cccc23)cc1 [Example 221] | corn rootworm | 40%
Fc1cccc2c(NCCC3CCCCC3)ccnc12 [Example 177] | corn rootworm | 0%
CC(=O)N(CCc1ccc(Cl)cc1)c1cc(N(CCc2ccc(Cl)cc2)C(C)=O)c2ccccc2n1 [Example 182] | corn rootworm | 0%
Fc1cccc2c(OCCc3ccccc3)ccnc12 [Example 219, 8-fluoro-4-(2-phenylethoxy)quinoline] | corn rootworm | 0%
Clc1ccc(CCNc2ccc3c(NCCc4ccc(Cl)cc4)ccnc3c2)cc1 [Example 186] | corn rootworm | 0%
Oc1ccc(CCNc2ccnc3c(F)cccc23)cc1 [Example 293] | corn rootworm | 0%
Fc1cccc2c(OCCc3ccccc3Cl)ccnc12 [Example 269] | corn rootworm | 0%
Cc1cc(C)c2nccc(NCCC3CCCCC3)c2c1 [Example 178] | corn rootworm | 0%
